# Test system: crabgrass (Digitaria sanguinalis)
# EXPERIMENT SUMMARY: Test B preemergence
# Format: in vivo
# CONDITION DETAILS: Preemergence, Rate 500 g/ha; scale 0 to 100, 0 no effect, 100 complete control
Provide the reported Plant response rating, Crabgrass of each item.

What reported Plant response rating, Crabgrass corresponds to CC(C)(C)c1ccn(C2CCN(c3ccc4c(c3)CCC4)C2=O)n1 (stereo not drawn) on crabgrass (Digitaria sanguinalis)?
30

Ok, now O=C1C(n2ccc(C3CCC3)n2)SCN1c1cccc(C(F)(F)F)c1 (stereo not drawn)
100

Ok, now COc1ccn(C2CCN(c3cccc(C(F)(F)F)c3)C2=O)n1 (stereo not drawn)
0

Ok, now CC(C)(C)c1ccn(C2CCN(c3cc(Cl)cc(Cl)c3)C2=O)n1 (stereo not drawn)
0

Ok, now CCCC(C)c1ccn(C2CCN(c3cccc(OC)c3)C2=O)n1 (stereo not drawn)
100

Ok, now Cc1ccc(N2CCC(n3ccc(C(C)(C)C)n3)C2=O)cc1Br (stereo not drawn)
100

Ok, now CCCC(C)c1ccn(C2OCN(c3cccc(OC(F)(F)F)c3)C2=O)n1 (stereo not drawn)
100

Ok, now CC(C)(C)c1ccn(C2CCN(c3cccc(C(F)(F)F)c3)C2=O)n1 (stereo not drawn)
100

Ok, now CCC(C)c1ccn(C2CCN(c3ccc(F)c(C(F)(F)F)c3)C2=O)n1 (stereo not drawn)
100
